# assay.system: human PDE5 (Homo sapiens, UniProt O76074)
# assay.summary: Inhibition of the type 5 phosphodiesterase (PDE5) activity, modified SPA test with platelet lysate
# details: PDE5 from human platelet lysate, 0.5 μM cGMP
# Protocol: Method for Measuring Inhibition of the Type 5 Phosphodiesterase (PDE5) Activity: As a source for human PDE5, platelets are used. For that purpose, 150 ml fresh blood from human donors anticoagulated with citrate [final concentration 0.3% (w/v)] is centrifuged at 200 g for 10 min to obtain the so-called platelet-rich-plasma (PRP) as a supernatant. 1/10 volume of ACD solution (85 mM Na3-citrate, 111 mM D-glucose, 71 mM citric acid, pH 4.4) is added to 9/10 volume of PRP. […]
Output 1 for records whose IC50 is lower than 0.4 nM, -1 for records at or above 0.4 nM.

Q. Lab log: compare recorded IC50 with 0.4 nM; is it strictly lower for CC(=O)N1CCC(NC(=O)c2c[nH]c3c(-c4c(OCC5CC5)ccc5c4OCO5)ncnc23)CC1 ?
A. 1

Q. Lab log: compare recorded IC50 with 0.4 nM; is it strictly lower for COc1ccc(OCC2CC2)c(-c2ncnc3c(C(=O)NC4CCN(C(=O)CO)CC4)c[nH]c23)c1 ?
A. -1

Q. Lab log: compare recorded IC50 with 0.4 nM; is it strictly lower for CC(=O)N1CCC(NC(=O)c2c[nH]c3c(-c4cc(F)c(O)cc4OCC4CC4)ncnc23)CC1 ?
A. -1

----------
# assay.system: UniProt:O76074
# assay.summary: Inhibition of the type 5 phosphodiesterase (PDE5) activity, modified SPA test with platelet lysate
# details: PDE5 from human platelet lysate, 0.5 μM cGMP
test.readout: pIC50
Numbers only, as −log10 of the molar value.

[
  {
    "molecule": "CCOc1ccc2c(c1-c1ncnc3c(C(=O)NC4CCN(C(=O)[C@H](C)O)CC4)c[nH]c13)OCO2",
    "pIC50": 8.67
  },
  {
    "molecule": "COc1ccc(-c2ncnc3c(C(=O)N[C@H]4CC[C@@H](NC(=O)C5(O)CC5)CC4)c[nH]c23)c(OCC2CC2)c1",
    "pIC50": 9.59
  },
  {
    "molecule": "COCCOc1ccc2c(c1-c1ncnc3c(C(=O)N[C@H]4CC[C@@H](NC(=O)COC)CC4)c[nH]c13)OCO2",
    "pIC50": 7.99
  },
  {
    "molecule": "O=C(N[C@H]1CC[C@H](NC(=O)C2CC2)CC1)c1c[nH]c2c(-c3c(OCC4CC4)ccc4c3OCO4)ncnc12",
    "pIC50": 9.91
  }
]

Could you tell me pIC50 for each of these molecules? They are listed below.
1. COc1cc(OCC2CC2)c(-c2ncnc3c(C(=O)N[C@@H]4CCN(C(=O)[C@H](C)O)C4)c[nH]c23)cc1F
2. COCCOc1cc(OC)ccc1-c1ncnc2c(C(=O)NC3CCN(C(C)=O)CC3)c[nH]c12

A.
[9.01, 7.62]

Could you tell me pIC50 for each of these molecules? They are listed below.
1. COCC(=O)N1CCC(NC(=O)c2c[nH]c3c(-c4cc(OC)ccc4OCC4CC4)ncnc23)CC1
2. CCC(=O)N1CC[C@@H](NC(=O)c2c[nH]c3c(-c4cc(OC)c(F)cc4OCC4CC4)ncnc23)C1

A.
1: 8.73; 2: 9.63

Could you tell me pIC50 for each of these molecules? They are listed below.
1. COc1cc(-c2ncnc3c(C(=O)N[C@@H]4CCN(C(=O)[C@H](C)O)C4)c[nH]c23)c(OCC2CC2)cc1F
2. COc1cc(OCC2CC2)c(-c2ncnc3c(C(=O)N[C@@H]4CCN(C(C)=O)C4)c[nH]c23)cc1F

A.
9.45
8.96

Could you tell me pIC50 for each of these molecules? They are listed below.
1. COc1ccc(-c2ncnc3c(C(=O)N[C@H]4CC[C@@H](NC(C)=O)CC4)c[nH]c23)c(OCC2CC2)c1
2. COCC(=O)N1CCCC(CNC(=O)c2c[nH]c3c(-c4c(OCC5CC5)ccc5c4OCO5)ncnc23)C1 (stereo not shown)
3. O=C(N[C@@H]1CCN(C(=O)C2(O)CC2)C1)c1c[nH]c2c(-c3c(OCC4CC4)ccc4c3OCO4)ncnc12
4. CCCOc1ccc2c(c1-c1ncnc3c(C(=O)N[C@@H]4CCN(C(=O)CC)C4)c[nH]c13)OCO2
5. O=C(NC1CCN(C(=O)C2CC2)CC1)c1c[nH]c2c(-c3c(OCC4CC4)ccc4c3OCO4)ncnc12

A.
9.43
9.32
9.32
9.03
10.16

----------
For each entry below, report its IC50 value.
# assay.system: human PDE5 (Homo sapiens)
# assay.summary: Inhibition of the type 5 phosphodiesterase (PDE5) activity, modified SPA test with platelet lysate
# details: PDE5 from human platelet lysate, 0.5 μM cGMP
One number for each entry, in nM.

Study these solved cases before continuing.
[
  {
    "molecule": "COCCOc1ccc2c(c1-c1ncnc3c(C(=O)NC4CCN(C(=O)C5CC5)CC4)c[nH]c13)OCO2",
    "value.units": "nM",
    "quantitative.readout": 1.74
  },
  {
    "molecule": "CCOC(=O)N1CC[C@H](NC(=O)c2c[nH]c3c(-c4c(OCC5CC5)ccc5c4OCO5)ncnc23)C1",
    "value.units": "nM",
    "quantitative.readout": 0.49
  },
  {
    "molecule": "C[C@H](O)C(=O)N1CCC(NC(=O)c2c[nH]c3c(-c4c(OCC5CC5)ccc5c4OCO5)ncnc23)CC1",
    "value.units": "nM",
    "quantitative.readout": 0.245
  },
  {
    "molecule": "CCCCOc1ccc2c(c1-c1ncnc3c(C(=O)NC4CCCN(C(=O)CC)C4)c[nH]c13)OCO2 (stereo not shown)",
    "value.units": "nM",
    "quantitative.readout": 0.24
  },
  {
    "molecule": "C[C@H](O)C(=O)N[C@H]1CC[C@@H](NC(=O)c2c[nH]c3c(-c4ccc(F)cc4OCC4CC4)ncnc23)CC1",
    "value.units": "nM",
    "quantitative.readout": 2.57
  }
]

Could you tell me IC50 for each of these molecules? They are listed below.
1. COCCOc1cc(OC)ccc1-c1ncnc2c(C(=O)N[C@H]3CC[C@H](NC(=O)[C@H](C)O)CC3)c[nH]c12
2. O=C(N[C@H]1CCN(C(=O)C2CC2)C1)c1c[nH]c2c(-c3c(OCC4CC4)ccc4c3OCO4)ncnc12

A.
1. 12
2. 0.537

----------
# assay.system: UniProt:O76074
# assay.summary: Inhibition of the type 5 phosphodiesterase (PDE5) activity, modified SPA test with platelet lysate
# details: PDE5 from human platelet lysate, 0.5 μM cGMP
For each entry below, report its pIC50 value.
Numbers only, as −log10 of the molar value.

Study these solved cases before continuing.
[
  {
    "compound": "CCCOc1ccc2c(c1-c1ncnc3c(C(=O)NC4CCN(C(=O)[C@H](C)O)CC4)c[nH]c13)OCO2 [Example 251]",
    "test.readout": "pIC50",
    "quantitative.readout": 9.44
  },
  {
    "compound": "COc1ccc(OCC2CC2)c(-c2ncnc3c(C(=O)N[C@H]4CC[C@@H](NC(=O)CO)CC4)c[nH]c23)c1 [Example 208]",
    "test.readout": "pIC50",
    "quantitative.readout": 8.73
  },
  {
    "compound": "COc1ccc(-c2ncnc3c(C(=O)NC4CCN(C(C)=O)CC4)c[nH]c23)c(OCC2CC2)c1 [Example 59]",
    "test.readout": "pIC50",
    "quantitative.readout": 9.13
  }
]

Could you tell me pIC50 for each of these compounds? They are listed below.
1. O=C(CO)N[C@H]1CC[C@H](NC(=O)c2c[nH]c3c(-c4ccc(F)cc4OCC4CC4)ncnc23)CC1 [Example 217]
2. C[C@H](O)C(=O)N[C@H]1CC[C@H](NC(=O)c2c[nH]c3c(-c4c(OCC5CC5)ccc5c4OCO5)ncnc23)CC1 [Example 173]
3. CCCCOc1ccc2c(c1-c1ncnc3c(C(=O)N[C@@H]4CCN(C(=O)[C@H](C)O)C4)c[nH]c13)OCO2 [Example 254]
4. COCC(=O)N1CC[C@H](NC(=O)c2c[nH]c3c(-c4c(OCC5CC5)ccc5c4OCO5)ncnc23)C1 [Example 21]
5. CCCOc1ccc2c(c1-c1ncnc3c(C(=O)N[C@@H]4CCN(C(=O)[C@H](C)O)C4)c[nH]c13)OCO2 [Example 252]
6. COc1ccc(-c2ncnc3c(C(=O)NC4CCN(C(=O)CO)CC4)c[nH]c23)c(OCC2CC2)c1 [Example 205]
7. O=C(N[C@@H]1CCN(C(=O)CO)C1)c1c[nH]c2c(-c3c(OCC4CC4)ccc4c3OCO4)ncnc12 [Example 180]

A.
1: 8.65; 2: 9.73; 3: 9.23; 4: 8.74; 5: 8.92; 6: 9.08; 7: 8.92

Could you tell me pIC50 for each of these compounds? They are listed below.
1. COCC(=O)N[C@H]1CC[C@@H](NC(=O)c2c[nH]c3c(-c4ccc(OC)cc4OCC4CC4)ncnc23)CC1 [Example 57]
2. CCCOc1ccc2c(c1-c1ncnc3c(C(=O)N[C@@H]4CCN(C(=O)COC)C4)c[nH]c13)OCO2 [Example 143]
3. COCCOc1cc(OC)ccc1-c1ncnc2c(C(=O)N[C@H]3CC[C@H](NC(=O)COC)CC3)c[nH]c12 [Example 157]

A.
1: 9.33; 2: 8.82; 3: 7.81

Documented pIC50 of COc1ccc(OCC2CC2)c(-c2ncnc3c(C(=O)N[C@H]4CC[C@@H](NC(=O)C5CC5)CC4)c[nH]c23)c1 [Example 68] : 9.04

Values from patent US8445501B2
